ASSAYED_SYSTEM: Muscarinic acetylcholine receptor M2 (Sus scrofa)
MEASUREMENT_PROTOCOL: Binding affinity for [3H]NMS-occupied muscarinic acetylcholine receptor M2 from porcine heart ventricle.
Item-by-item account of p alphaKa
Answer using only a numeral; do not append any unit.

Consider the compound C[N+](C)(CCCCCC[N+](C)(C)CCCN1C(=O)c2cc(F)c(F)cc2C1=O)CCCN1C(=O)c2cc(F)c(F)cc2C1=O and give its measured p alphaKa.
6.08

Try this compound next: C[N+](C)(CCCCCC[N+](C)(C)CCCN1C(=O)c2cc3ccccc3cc2C1=O)CCCN1C(=O)c2ccccc2C1=O
6.8

Try this compound next: C[N+](C)(CCCCCC[N+](C)(C)CCCN1C(=O)c2ccc(C(F)(F)F)cc2C1=O)CCCN1C(=O)c2ccc(C(F)(F)F)cc2C1=O
6.15

Try this compound next: Cc1ccc2c(c1)C(=O)N(CCC[N+](C)(C)CCCCCC[N+](C)(C)CCCN1C(=O)c3ccccc3C1=O)C2=O
6.42

Provenance of the data: ChEMBL document CHEMBL1145782
